Where do these numbers come from? They come from ChEMBL document CHEMBL4513216.

# experiment.notes: Toxicity liver stage against HepG2, at 10uM
# Type: cell-based
# Set-up: test concentration 10 uM, cell line HepG2-A16-CD81EGFP
# condition.context: human, HepG2-A16-CD81EGFP cells; read-out: INHIBITION
This listing pairs compounds with measured cytotoxicity at 10 µM.
Numeric answer only, unit % assumed.

Record excerpt, results attached:
Prompt line: Give cytotoxicity at 10 µM for the following compound: Cc1ccc([C@]2(O)CC[C@H]3CN(Cc4ccncc4)C[C@H]32)nc1
Response line: -31.5

Prompt line: Give cytotoxicity at 10 µM for the following compound: O=C(c1ccsc1)N1CCC2(CC1)CCN(S(=O)(=O)C1CC1)CC2
Response line: -109

Prompt line: Give cytotoxicity at 10 µM for the following compound: Cc1cccc(CN2C[C@@H]3OCCN(C)[C@@H]3C2)n1
Response line: 1.73

***
Prompt line: Give cytotoxicity at 10 µM for the following compound: CN(Cc1cn(C2CCNCC2)nn1)CC1CCCO1 (stereo not given)
Response line: -4.76

Prompt line: Give cytotoxicity at 10 µM for the following compound: CNc1nc(N2C[C@H](NC(=O)CCOC)[C@@H](C3CC3)C2)nc2c1CCC2
Response line: 9.62
